ASSAY PROCEDURE: solvent given as SMILES
ASSAY CONDITIONS: in ClC(Cl)(Cl)Cl
Record form. Attribute: solvation free energy, 298 K. Fill in for each entry.
Answers are plain numbers, in kcal/mol.

# COMPOUND, solvation free energy, 298 K / kcal/mol
data = [
    ("O=C(c1ccccc1)C(O)c1ccccc1 (stereo not given)", -14.4),
]

List reported solvation free energy, 298 K for each of these compounds:
1. ClC(Cl)Cl
2. COCOC
3. ClC(Cl)=C(Cl)Cl
4. CC(Cl)CCl (stereo not given)

Reply:
1. -4
2. -3.66
3. -5.48
4. -4.65

The following compounds each have a reported value; give each one's solvation free energy, 298 K.
1. C1COCCO1
2. C(=Cc1ccccc1)c1ccccc1
3. Ic1ccccc1
4. CCCCCl
5. CCCCOCC

Reply:
-4.95
-11.2
-6.81
-4.31
-4.91

====

ASSAY PROCEDURE: solvent given as SMILES
ASSAY CONDITIONS: in O
MEASUREMENT TYPE: solvation free energy, 298 K (kcal/mol)
Give bare numbers, in kcal/mol.

# COMPOUND, QUANTITATIVE RESULT
records = [
    ("CC(C)NC(C)C", -3.22),
]

# batch size: 7; output solvation free energy, 298 K per entry
1. CCCCCCCCN
2. [H][H]
3. COC(CCl)(OC)OC
4. CCCCCNCc1ccc(C)cc1
5. CNC(=O)Oc1cccc2c1OC(C)(C)C2
6. CCC1CCCCC1
7. O=C(OC1CCCCC1)c1ccccc1C(=O)OC1CCCCC1

Reply:
-3.73
2.35
-4.59
-5.21
-9.61
2.14
-9.07

Please state, for each entry, its recorded solvation free energy, 298 K.
1. CCCCCl
2. CC(=O)CC(=O)c1cccs1
3. C=CCC(C)C
4. c1cc2ccc3ccc4ccc5cccc6c(c1)c2c3c4c56
5. CC1CCC(C)O1 (configuration not stated)

Reply:
1: -0.23; 2: -6.08; 3: 1.9; 4: -8.98; 5: -2.92

Parameter requested: solvation free energy, 298 K. Apply to each item below.
1. Clc1ccc(Cl)c(-c2ccccc2Cl)c1
2. NCCc1ccc(O)cc1
3. O=c1cc(Cl)[nH]c(=O)[nH]1
4. Clc1ccc(Cl)c(-c2cc(Cl)c(Cl)cc2Cl)c1

Reply:
1: -2.37; 2: -11.8; 3: -15.8; 4: -2.82

====

Please respond with reported solvation free energy, 298 K for every item in the list.
ASSAY PROCEDURE: solvent given as SMILES
ASSAY CONDITIONS: in c1ccc(C2CCCCC2)cc1
Numbers only, in kcal/mol.

Recorded results for 3 compounds are shown here.
# MOLECULE, solvation free energy, 298 K [kcal/mol]
rows = [
    ("C=CCCCC", -3.63),
    ("C#CCCCC", -3.88),
    ("C1=CCCC=C1", -4.19),
]

Shifting focus to the compound that follows.
Task item: Entry "C1=CCC=CC1" : reported solvation free energy, 298 K = ?
Reply: -4.49

====

Field: solvation free energy, 298 K. Provide a value for each of the molecules that follow.
ASSAY PROCEDURE: solvent given as SMILES
ASSAY CONDITIONS: in N#CCCCCC#N
Give the number first and the unit second.

# MOLECULE, solvation free energy, 298 K
rows = [
    ("C#CCCCCCC", "-4.31 kcal/mol"),
    ("C#CCCCC", "-3.32 kcal/mol"),
    ("CCCCCCCCCC", "-3.99 kcal/mol"),
]

Hi team, please reply with solvation free energy, 298 K for each item in this list.
1. C=CCCCC
2. C=CCCCCCC
3. C=CC(=C)C

Reply:
-2.31 kcal/mol
-3.31 kcal/mol
-2.35 kcal/mol

====

Give solvation free energy, 298 K for every item shown.
ASSAY PROCEDURE: solvent given as SMILES
ASSAY CONDITIONS: in ClC(Cl)(Cl)Cl
Answers are plain numbers, in kcal/mol.

Solved entries:
# MOLECULE, QUANTITATIVE RESULT
rows = [
    ("CC(Cl)Cl", -3.78),
    ("FC(F)(Cl)C(F)(Cl)Cl", -3.27),
    ("CC(C)C", -2.37),
    ("CCOC=O", -3.33),
]

# return solvation free energy, 298 K for each item in the list
1. [HH]
2. O=[N+]([O-])c1cccc(Cl)c1Cl

Reply:
[1.51, -9.46]

Below are 5 compounds. Give each one its solvation free energy, 298 K.
1. CCC1CCCCC1
2. O=C1c2ccccc2-c2ccccc21
3. CCCC
4. CCC
5. CCCCBr

Reply:
1: -5.58; 2: -11.5; 3: -2.67; 4: -1.83; 5: -4.75

Answer for every listed entry: what is its solvation free energy, 298 K? The entries follow.
1. ClC(Cl)C(Cl)Cl
2. COC(C)(C)C

Reply:
1: -5.93; 2: -3.94

Below is a list of compounds. For each, state its recorded solvation free energy, 298 K.
1. O
2. c1ccc2c(c1)ccc1ccccc12
3. O=C1CCCC1
4. CC(C)(C)Br
5. CCC#N
6. C=CC(=C)C

Reply:
[-1.15, -11, -5.54, -4.13, -3.78, -3.49]

Task item: // query solvation free energy, 298 K value for entry "CCN(CC)CC"
Reply: -4.82

====

ASSAY PROCEDURE: solvent given as SMILES
ASSAY CONDITIONS: in CCCCCCCCCCCCCCCC
# class assignment by measured solvation free energy, 298 K: low band (below -5 kcal/mol), middle band (-5 kcal/mol to below -3 kcal/mol), high band (-3 kcal/mol or more)

# MOLECULE, GROUP
measured = [
    ("CCN(CC)CC", "middle band"),
    ("CCC1CCCCC1", "low band"),
    ("Ic1ccccc1", "low band"),
]

Task item: Determine which band this compound sits in: "CS(C)=O"
Reply: middle band

Task item: Also check "ClC(Cl)Cl"
Reply: middle band

====

ASSAY PROCEDURE: solvent given as SMILES
ASSAY CONDITIONS: in C1COCCO1
Can you tell me solvation free energy, 298 K for the items I'm about to list?
Give bare numbers, in kcal/mol.

Solved cases below.
# COMPOUND, QUANTITATIVE RESULT
rows = [
    ("COc1ccccc1C(=O)O", -11.7),
    ("CCCC", -2.13),
    ("C=CC=C", -2.03),
]

Count: 2. Required value per item: solvation free energy, 298 K.
1. CCCCN
2. Cc1c(C(=O)O)cc([N+](=O)[O-])cc1[N+](=O)[O-]

Reply:
1: -4.48; 2: -17.5

# batch: return solvation free energy, 298 K for each of the 8 compounds below
1. CCCCCl
2. COc1ccc2cc(C(C)C(=O)O)ccc2c1 (centres undefined)
3. CC(C)O
4. O=C(O)c1ccc(O)cc1
5. Cc1cccc(C(=O)O)c1
6. CCC
7. O=C(O)c1ccccc1O
8. Nc1ccc(O)cc1

Reply:
1: -4.4; 2: -17.7; 3: -4.37; 4: -11.2; 5: -10.1; 6: -1.24; 7: -10.3; 8: -12.3

List solvation free energy, 298 K for every entry below, keeping the order given.
1. O=C(c1ccccc1)C(O)c1ccccc1 (centres undefined)
2. CC(C)(C)Br
3. C#CC=C

Reply:
1: -16.5; 2: -3.81; 3: -3.21

Hello, I would appreciate it if you could give solvation free energy, 298 K for each entry below.
1. c1ccc2c(c1)ccc1ccccc12
2. Ic1ccccc1
3. O

Reply:
1. -11.3
2. -7.22
3. -4.37

====

ASSAY PROCEDURE: solvent given as SMILES
ASSAY CONDITIONS: in CO
For each record, write down the corresponding solvation free energy, 298 K.
One number for each entry, in kcal/mol.

Reference set (8 entries):
# COMPOUND, OUTPUT UNIT, QUANTITATIVE RESULT
rows = [
    ("C1COCCO1", "kcal/mol", -4.9),
    ("CCCCCC(=O)OC", "kcal/mol", -5.84),
    ("CC(C)O", "kcal/mol", -5.53),
    ("CCCOC(C)=O", "kcal/mol", -4.82),
    ("CCOc1ccc(NC(C)=O)cc1", "kcal/mol", -13.6),
    ("c1ccc2c(c1)ccc1ccccc12", "kcal/mol", -9.88),
    ("CCC#N", "kcal/mol", -4.92),
    ("O=C(O)c1ccccc1", "kcal/mol", -9.81),
]

Could I get solvation free energy, 298 K for every one of these entries?
1. CCCl
2. O=C1c2ccccc2-c2ccccc21
3. COc1ccc2cc(C(C)C(=O)O)ccc2c1 (stereo unspecified)
4. CCCCC=O
5. OC1CCCCC1
6. c1ccc2c(c1)Cc1ccccc1-2
7. CC(C)C
8. CCS

Reply:
[-2.63, -10.6, -16.7, -4.87, -7.69, -8.85, -1.46, -3]

Please state solvation free energy, 298 K for every compound in the list that follows.
1. O
2. C(=Cc1ccccc1)c1ccccc1
3. CCN(CC)CC
4. Cc1cccc(C(=O)O)c1

Reply:
[-5.59, -9.92, -5.24, -10.3]

Value sought for every listed compound: solvation free energy, 298 K.
1. CCC
2. COc1ccccc1C(=O)O
3. CCCC(C)=O
4. O=C(O)c1ccccc1O
5. CCCc1ccccc1

Reply:
1. -1.15
2. -11.8
3. -4.88
4. -10.5
5. -5.31

Each compound below has a recorded value; state its solvation free energy, 298 K.
1. CCCCC(=O)OC
2. CCCC
3. C=CC=C
4. CCC1CCCCC1
5. CCCCCCCCO
6. COC(C)(C)C
7. [HH]

Reply:
[-5.33, -1.73, -2.14, -4.05, -8.03, -3.78, 1.35]

Please go through the list and note solvation free energy, 298 K for each compound.
1. CC(C)CCO
2. N
3. ClC(Cl)Cl
4. CCOC(C)(C)C

Reply:
[-6.77, -3.08, -4.12, -4.07]
